test.target: rat brain farnesyl:protein transferase (rat, UniProt Q04631 2-377; Q02293 1-437)
assay: farnesyltransferase activity inhibition; FIG. 10A
Quick reference: Ki of the listed items.
Please state the figure in µM; there is no need to write the unit.

>>> print(df.to_string())
                                     binder  test_value
0  CVIA [CVIA (COOH-terminal tetrapeptide of a-Mating factor)]           4

API: the following record is the query input.
IN: Provide one value: measured Ki of CVAM
OUT: 6
